For each of the molecules below, state its GI50.
tested on: DU-145; test: NCI tumour cell line growth inhibition, 48 h
The source made the active and inactive calls. No stated cut-off is given here; in the data, active = GI50 up to about 1.1 µM and inactive = higher.

Use the examples below as a reference point.
O=C1c2cc([N+](=O)[O-])cc3cc([N+](=O)[O-])cc(c23)C(=O)N1CCCNCCNCCCN1C(=O)c2cc([N+](=O)[O-])cc3cc([N+](=O)[O-])cc(c23)C1=O
0.453 µM (active)
C/C(=N\Nc1nc2ccccc2[nH]1)c1ccc2ccccc2n1
1.91 µM (inactive)
C[C@@H]1S[C@H](c2c(Cl)cccc2Cl)N2Cc3ccccc3N=C12
> 100 µM (inactive)
CCNCC(O)c1ccc(N)c([N+](=O)[O-])c1 (stereo not given)
> 100 µM (inactive)
NC1c2c(Br)sc(N3CCCC3)c2C(=O)C1O (stereo not given)
> 50 µM (inactive)
c1ccc2c(c1)N=c1cc3c(cc1N2)=NC12CCCCC1CC1=C(CCCC1)N32 (stereo not given)
> 10 µM (inactive)

// input: 4 molecules below; output: GI50 for each
1. COc1ccc(Nc2nc3ccccc3n3cccc23)cc1OC
2. CC1=NN(c2cccc(Cl)c2)C(=N/c2nc3ccccc3s2)/C1=C\c1cccs1
3. CN(C)c1cccc(NC2=NCCO2)c1
4. O=S(=O)(O)c1ccc(/N=N/c2c(O)ccc3ccccc23)cc1

Marked response:
1. 17.1 µM (inactive)
2. 44.4 µM (inactive)
3. > 100 µM (inactive)
4. > 100 µM (inactive)
